The measured values listed here are drawn from PubChem BioAssay.

Experiment: small-molecule microarray binders of probe aShh, primary screen, biochemical, biotinylated probe, 635/667 nm fluorescence (AID 1114);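 also: probe is biotin-labelled aShh protein from a stem cell growth factor screen; measures binding of labelled protein to compounds printed on the slide; score merges feature fluorescence at 667 nm with signal-to-noise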
Conditions: higher = more signal
experimental-readout: composite z-score

molecule: COC(=O)C(CC#Cc1ccc2c(c1)[C@]1(C(=O)N2)[C@H](c2ccccc2OCCO)N2[C@H](c3ccccc3)[C@H](c3ccccc3)OC(=O)[C@H]2[C@@H]1C(=O)N1CCN(c2ncccn2)CC1)C(=O)OC
experimental-readout: composite z-score
result: 0.178
//
molecule: C=CCC(OC(C)=O)[C@@H]1[C@@H](N(Cc2ccc(-c3ccccc3)cc2)C(=O)Cc2ccc(OC)cc2)c2cc(OCCCO)ccc2N1C(=O)Cc1ccc(OC)cc1 (stereo partly drawn)
experimental-readout: composite z-score
result: -0.229
//
molecule: COc1ccc(C(O)C2C=CC3C(=O)N(C)C(=O)C3N2Nc2ccccc2)cc1 (stereo not drawn)
experimental-readout: composite z-score
result: 0.462
//
molecule: COc1ccc(C(=O)Nc2ccc(CN3C(=O)[C@@]4(O[C@@H](CC(=O)N(CCO)Cc5ccccc5)[C@H]([Si](C)(C)c5ccc(OC)cc5)[C@H]4C)c4ccccc43)cc2)cc1
experimental-readout: composite z-score
result: -0.341
//
molecule: CCOC(=O)C=C1C[C@@H](c2cccc([N+](=O)[O-])c2)O[C@@H](c2cccc([N+](=O)[O-])c2)O1
experimental-readout: composite z-score
result: 0.317

Items follow; give composite z-score for each.
1. CCCCC(=C=CC[C@H](O)c1ccccc1OCCO)CCO
2. O=C(N1CCOCC1)[C@]1(CCS(=O)(=O)c2ccccc2)N=C(c2ccc(OCCCO)cc2)O[C@@H]1c1ccccc1
3. C=CCNC(=O)[C@@H]1[C@H]2C(=O)O[C@H](c3ccccc3)[C@H](c3ccccc3)N2[C@H](c2ccc(O)cc2)[C@@]12C(=O)N(C(=O)OCCOC)c1ccc(C#CCC(C(=O)OC)C(=O)OC)cc12
4. CC1CC/C=C\[C@H]2OC34C=CCN(CCN5CCOCC5)C(=O)[C@H]3N(C(CO)C(C)C)C(=O)[C@@H]4C2C(=O)O1 (stereo partly drawn)
5. CC(C)(C)OC(=O)CC[C@]1(C(=O)N2CCOCC2)COC(c2ccc(OCCCO)cc2)=N1
6. C[C@]1(C(=O)NCC(F)(F)F)c2ccccc2C(=O)N(Cc2cc(C(F)(F)F)cc(C(F)(F)F)c2)[C@H]1c1ccc(CO)cc1
7. O=C1C[C@@](C(=O)NCC(F)(F)F)(c2ccc([N+](=O)[O-])cc2)[C@@H](c2ccc(CO)cc2I)N1CC12CC3CC(CC(C3)C1)C2
8. C=CCNC(=O)[C@H]1[C@@H]2C(=O)O[C@@H](c3ccccc3)[C@@H](c3ccccc3)N2[C@@H](c2ccc(O)cc2)[C@]12C(=O)N(C(=O)OCCOC)c1ccc(C#Cc3ccc(OC)cc3)cc12

*A*
-0.108
0.123
0.151
0.0469
0.184
-0.0146
-0.314
0.229

====

Experiment: E. coli DRC41 culture turbidity changes, primary screen, E. coli filamentation inducer project, strain DRC41, OD650, 48 h (AID 1152);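 also: E. coli MC1000 strain DRC41 lacking acrAB efflux pump and sulA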
Details: E. coli DRC41 (acrAB sulA), higher = more signal, called active from +8 up or from −8 down
Field: z-score. Provide a value for each of the compounds that follow.
One number for each entry.

Field: example entries. Status: answers known.
compound: CC(C)Cc1ccc(CN2CC[C@@H](NC(=O)c3ccccc3)C2)cc1
z-score: -0.55

compound: COc1cc2c(cc1O)C(C)N(Cc1sc3ccccc3c1Cl)CC2 (stereo not drawn)
z-score: 0.268

compound: COCCOC(=O)N1C(=O)[C@@]2(c3cc(C#CCC(C(=O)OC)C(=O)OC)ccc31)[C@H](C(N)=O)[C@H]1C(=O)O[C@H](c3ccccc3)[C@H](c3ccccc3)N1[C@@H]2c1ccccc1OCCO
z-score: 1.08

compound: O=C1NC(=O)C2C1C=CC(C(O)C(c1ccccc1)c1ccccc1)N2Nc1ccccn1 (stereo not drawn)
z-score: -0.332

compound: CCCCN1CC=CC23O[C@@H]4C=CCCOC(=O)C4[C@H]2C(=O)N(CCO)[C@@H]3C1=O (stereo partly drawn)
z-score: 0.634

// each listed compound needs a value for z-score
1. CO[C@H]1O[C@H](CO)[C@@H](OC(=O)Nc2ccccc2)[C@@H]2OC(=O)[C@@H](Cc3ccccc3)C/C=C/C[C@H](Cc3ccccc3)C(=O)O[C@@H]12
2. CC(C)N1CC=CC23O[C@@H]4/C=C\CCCOC(=O)C4[C@H]2C(=O)N(C(C)CO)[C@@H]3C1=O (stereo partly drawn)
3. COc1c(C)cc(-c2nc(-c3ccccc3)c3c(c2C)CO[Si]3(C(C)C)C(C)C)cc1C

*A*
0.364
2.12
-1.31

Fill in z-score for each of the 5 compounds listed.
1. CC(C)N1C(=O)[C@@]2(Cc3ccccc31)c1ccccc1C(=O)N(Cc1ccccc1)[C@H]2c1ccc(CO)cc1
2. COC(=O)[C@H]1N=C(c2ccc(OCCCO)cc2)O[C@H]1c1ccccc1N=[N+]=[N-]
3. Cc1cccc([C@H]2C[C@H]3C(Br)=C[C@@]2(CO)C(=O)[C@]32CO2)c1
4. C=C(CCCC)/C(=C/C[C@@H](OC(C)=O)c1ccc(OCCO)cc1)c1cc(C(=O)OC)ccc1OC
5. C=CC[C@]1(C(=O)NCC(O)CO)N=C(c2ccc(OCCCO)cc2)O[C@H]1c1ccccc1CN=[N+]=[N-] (stereo partly drawn)

*A*
0.882
-0.33
-0.269
-0.195
0.0715

Hi! Can you tell me z-score for each of these compounds?
1. C=CCC(OC(C)=O)[C@@H]1[C@@H](N(Cc2ccc(-c3ccccc3)cc2)C(=O)Cc2ccc(OC)cc2)c2cc(OCCCO)ccc2N1C(=O)c1ccc2ccccc2c1 (stereo partly drawn)
2. CCOC(=O)C[C@H]1[C@H](OC(=O)Cc2ccc3c(c2)OCO3)[C@@H](NC(=O)CC(C)C)c2cc(OCCCO)ccc2N1C(=O)c1ccc2ccccc2n1
3. COCCOC(=O)N1C(=O)[C@@]2(c3cc(C#CCNC(N)=O)ccc31)[C@H](C(=O)N1CCN(c3ncccn3)CC1)[C@H]1C(=O)O[C@H](c3ccccc3)[C@H](c3ccccc3)N1[C@@H]2c1ccc(O)cc1
4. COC(=O)C(CC#Cc1ccc2c(c1)[C@]1(C(=O)N2)[C@H](C(N)=O)[C@H]2C(=O)O[C@H](c3ccccc3)[C@H](c3ccccc3)N2[C@@H]1c1ccccc1OCCO)C(=O)OC
5. O=C1O[C@H](c2ccccc2)[C@H](c2ccccc2)N2[C@H]1[C@@H](C(=O)O)[C@]1(C(=O)Nc3ccccc31)[C@H]2c1ccc(OCCO)cc1
6. CC1CC/C=C\[C@H]2OC34C=CCN(CCN5CCOCC5)C(=O)[C@H]3N(C(CO)C(C)C)C(=O)[C@@H]4C2C(=O)O1 (stereo partly drawn)

*A*
1: -0.894; 2: 0.685; 3: 0.03; 4: 0.879; 5: 0.368; 6: -0.481

====

Test: CREB reporter modulators under forskolin, primary screen, cell-based, PC12, CRE-LacZ reporter, forskolin-stimulated (AID 1146);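 also: PC12 cells with 6xCRE LacZ reporter stimulated by forskolin 10 µM; beta-galactosidase reporter signal reflecting CREB driven transcription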
Details: luminescence, 4.5 h, higher = more signal, called active from +8 up or from −8 down
experimental-readout: z-score
One number for each entry.

Dear reader, for each entry below, please note its z-score.
1. CN1C(=O)C2C=CC(C(O)COCc3ccccc3)N(Nc3ccc([N+](=O)[O-])cc3[N+](=O)[O-])C2C1=O (stereo unspecified)
2. [N-]=[N+]=NCc1ccccc1[C@H]1OC(c2ccc(OCCCO)cc2)=N[C@@]1(Cc1ccccc1N=[N+]=[N-])C(=O)N1CCOCC1
3. C=CCNC(=O)[C@H]1[C@@H]2C(=O)O[C@@H](c3ccccc3)[C@@H](c3ccccc3)N2[C@@H](c2ccc(O)cc2)[C@]12C(=O)Nc1ccccc12
4. COCCOC(=O)N1C(=O)[C@@]2(c3cc(C#CCC(C(=O)OC)C(=O)OC)ccc31)[C@H](C(=O)N1CCc3cc(OC)c(OC)cc3C1)[C@H]1C(=O)O[C@H](c3ccccc3)[C@H](c3ccccc3)N1[C@@H]2c1ccccc1OCCO
5. C=CCN1C(=O)[C@@]2(O[C@@H](CCO)[C@H]([Si](C)(C)c3ccc(OC)cc3)[C@H]2C)c2cc(N3CCCCC3=O)ccc21
6. [N-]=[N+]=NCc1ccccc1C[C@]1(C(=O)N2CCCCC2)COC(c2ccc(OCCCO)cc2)=N1

*A*
-0.252
-0.529
-0.0955
0.149
-0.639
1.43

====

Assay: COS7 lysate on small-molecule microarray, probe aHis, 635 nm (AID 1123);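 also: z-score combines 667nm fluorescence intensity with signal-to-noise per printed compound spot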
Conditions: COS7 cell lysate, fluorescence, higher = more signal
experimental-readout: composite z-score
Numbers only.

Worked cases, composite z-score given:
smiles-input: COC(=O)Cn1c(C(=O)N(C)C)cc2c1C[C@H]1CN(C(=O)c3ccccc3)[C@@](Cc3ccccc3)(C(=O)OC)[C@@H]21
composite z-score: 1.55
//
smiles-input: C=CCOC(=O)[C@H]1[C@@H]2C(=O)O[C@@H](c3ccccc3)[C@@H](c3ccccc3)N2[C@@H](c2ccc(OCCOC(=O)[C@H]3C[C@H]4C(=O)NCC(=O)N4[C@H]3c3ccc(O)cc3)cc2)[C@]12C(=O)Nc1ccccc12
composite z-score: 1.67

Dear reader, for each entry below, please note its composite z-score.
1. C[C@]1(C(=O)NCC(F)(F)F)c2ccccc2C(=O)N(Cc2cc(C(F)(F)F)cc(C(F)(F)F)c2)[C@H]1c1ccc(CO)cc1
2. C=CCNC(=O)[C@H]1[C@@H]2C(=O)O[C@@H](c3ccccc3)[C@@H](c3ccccc3)N2[C@@H](c2ccc(OCCO)cc2)[C@]12C(=O)N(C(=O)OCCOC)c1ccc(C#CCNC(N)=O)cc12
3. CO[C@H]1O[C@H](CO)[C@@H](OC(=O)CCc2ccccc2)[C@@H]2OC(=O)[C@@H](Cc3ccc4ccccc4c3)C/C=C/C[C@H](Cc3ccc4ccccc4c3)C(=O)O[C@@H]12

*A*
1. 1.11
2. 1.73
3. 1.18
